- Method summary: gradient 5% acetonitrile 3 min, to 50% in 2 min, to 85% in 15 min, held 3 min, 100 µL/min
- Conditions used: column: Zorbax Extend-C18 2.1 x 50 mm; eluents: water / acetonitrile, 0.1% formic acid
Recorded metric: RP-LC retention time (s)
Just the number in s, nothing appended.

Example cases with answers are listed next.
* N#CCc1ccc(NC(=O)C2CCCN(S(=O)(=O)Cc3ccccc3Cl)C2)cc1 (stereo not drawn) | 905
* CCCC(NC(=O)Cc1ccc(OC)c(Cl)c1)C(=O)Nc1nc2ccccc2[nH]1 (stereo not drawn) | 720
* CCOc1ccc(NC(=O)N2CCCC2c2nc(-c3ccc(OC)cc3)no2)cc1 (stereo not drawn) | 940
* O=C(Cn1cnc2ccccc2c1=O)N1CCOCC1 | 590
* CCCCOc1ccc(-c2ccc(=O)n(Cc3nc(-c4cc(OC)c(OC)c(OC)c4)no3)n2)cc1 | 1200

Can you look up the measured RP-LC retention time of Cc1nc2c(NS(=O)(=O)c3ccc(F)cc3)cccn2n1 for me? 715

Can you look up the measured RP-LC retention time of CCCN1C(=O)COc2ccc(-c3csc(NC(=O)C(C)C)n3)cc21 for me? 918

Can you look up the measured RP-LC retention time of O=C(Nc1cccc(-c2cn3cccnc3n2)c1)c1ccc(F)c(F)c1 for me? 706
